For reference, pIC50 measured on HCV RNA-dependent RNA polymerase NS5B (Δ21) (Hepatitis C virus genotype 1b):
# reply with the number alone; pIC50 is -log10 of concentration in mol/L

COMPOUND: O=C(Cn1nc(C(=O)O)cc1OCc1ccccc1-c1cccs1)N[C@H]1CCCC[C@@H]1OCc1ccccc1
QUANTITATIVE RESULT: 5.68

Under HCV RNA-dependent RNA polymerase NS5B (Δ21) (Hepatitis C virus genotype 1b): pIC50 value of O=C(Cn1nc(C(=O)O)cc1OCc1cc(Cl)ccc1F)N[C@H]1CCCC[C@@H]1OCc1ccccc1 ?
5.11

Under HCV RNA-dependent RNA polymerase NS5B (Δ21) (Hepatitis C virus genotype 1b): pIC50 value of O=C(Cn1nc(C(=O)O)cc1OCc1ccc(Cl)c(Cl)c1)N[C@H]1CCCC[C@@H]1OCc1ccccc1 ?
6.07

Under HCV RNA-dependent RNA polymerase NS5B (Δ21) (Hepatitis C virus genotype 1b): pIC50 value of CS(=O)(=O)c1ccc(-c2ccccc2COc2cc(C(=O)O)nn2CC(=O)N[C@H]2CCCC[C@@H]2OCc2ccccc2)cc1 ?
5.04

Under HCV RNA-dependent RNA polymerase NS5B (Δ21) (Hepatitis C virus genotype 1b): pIC50 value of CS(=O)(=O)c1cccc(-c2ccccc2COc2cc(C(=O)O)nn2CC(=O)N[C@H]2CCCC[C@@H]2OCc2ccccc2)c1 ?
4.66
